# TARGET: human activated Factor X (Xa) (human)
No end group written: not given here.
VALUE TYPE: IC50, Factor Xa-1 stage clotting assay

# BINDER, VALUE TYPE, REPORTED VALUE
measured = [
    ("EKGRQSTRLKMLEVPY-NH2 [synthetic peptide X329-344]", "IC50, Factor Xa-1 stage clotting assay", "500 µM"),
    ("VTAFLKWIDRSMKTR-NH2 [synthetic peptide X415-429]", "IC50, Factor Xa-1 stage clotting assay", "115 µM"),
    ("QVVNLPIVERPVSKD-NH2 (not fully specified) [synthetic peptide PT481-495]", "IC50, Factor Xa-1 stage clotting assay", "> 500 µM"),
    ("ARKGKYGIYTKVTAF-NH2 [synthetic peptide X404-418]", "IC50, Factor Xa-1 stage clotting assay", "50 µM"),
]
